Experimental system: T1, RLD2 BRX domain (residues 1006-1066) (Arabidopsis thaliana, UniProt F4K0X5 1006-1066)
T1 construct: HRV3C cleavage may leave vector residues at the N-terminus (surmised); source: E. coli BL21Star (DE3), purified (His-tag resin, HRV3C cleavage, gel filtration); for crystals co-expressed with LZY3 (274-287); not shown: His6, N-terminal, cleaved
T1 sequence (looked up): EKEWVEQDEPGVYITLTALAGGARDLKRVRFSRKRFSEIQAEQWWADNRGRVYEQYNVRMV
Method description: ITC; iTC200, 20 °C; 20 mM Tris-HCl pH 8.0, 150 mM NaCl; 200 μM LZY3 (274-287) injected into 20 μM RLD2 BRX domain; 1:1 binding model
Measurement setup: both partners purified
Result type: Kd (nM)
Give bare numbers, in nM.

Task item: // returns reported Kd for input KWVKTDSDFIVLEI (peptide, UniProt Q5XVG3 274-287, looked up, LZY3 (LAZY1-LIKE 3), Arabidopsis thaliana, residues 274-287 (CCL domain); HRV3C cleavage may leave vector residues at the N-terminus (surmised); also called CCL β-hairpin; source: E. coli BL21Star (DE3), purified (glutathione sepharose, HRV3C cleavage, gel filtration, reverse phase); for crystals co-expressed with RLD2; not shown: GST, N-terminal, cleaved) [LZY3 CCL peptide (residues 274-287)]
Reply: 9.7
